// provenance: patent US20200270309A1

Below, each entry is listed with its recorded MRT inf.
Experiment: Half-lives and pharmacokinetic parameters of polypeptides vs HM-1
Conditions: in vivo
Peptide text beside a SMILES is read from it. * marks the point of attachment. X20 = O=C1C=CC(=O)N1CCOCCOCCOCCOCCOCCCC(=O)*; X6 = O=C1C=CC(=O)N1CCOCCOCCOCCCCCCCC(=O)*; X56 = O=C1C=CC(=O)N1c1ccc(CCC(=O)*)cc1
Write down the numeric answer in h and omit the unit.

These solved cases illustrate the format of a correct answer.
1. C[C@H](NC(=O)CNC(=O)[C@H](CCCNC(=N)N)NC(=O)CCCOCCOCCOCCOCCOCCN1C(=O)C=CC1=O)C(=O)N[C@@H](CC(=O)O)C(=O)N[C@@H](CCCNC(=N)N)C(=O)N[C@@H](C)C(=O)NCC(=O)NCC(=O)NCC(=O)NCC(=O)N[C@@H](CCCNC(=N)N)C(=O)NCC(=O)N[C@@H](CC(=O)O)C(=O)O [X79] (X20-RGADRAGGGGRGD-OH); 54.6
2. C[C@H](NC(=O)CNC(=O)[C@H](CCCNC(=N)N)NC(=O)CCCCCCCOCCOCCOCCN1C(=O)C=CC1=O)C(=O)N[C@@H](CC(=O)O)C(=O)N[C@@H](CCCNC(=N)N)C(=O)N[C@@H](C)C(=O)NCC(=O)NCC(=O)NCC(=O)NCC(=O)N[C@@H](CCCNC(=N)N)C(=O)NCC(=O)N[C@@H](CC(=O)O)C(=O)O [X69] (X6-RGADRAGGGGRGD-OH); 48.2

// next entry
Q) Which MRT inf value is on record for C[C@H](NC(=O)CNC(=O)[C@H](CCCNC(=N)N)NC(=O)CCc1ccc(N2C(=O)C=CC2=O)cc1)C(=O)N[C@@H](CC(=O)O)C(=O)N[C@@H](CCCNC(=N)N)C(=O)N[C@@H](C)C(=O)NCC(=O)NCC(=O)NCC(=O)NCC(=O)N[C@@H](CCCNC(=N)N)C(=O)NCC(=O)N[C@@H](CC(=O)O)C(=O)O [X38] (X56-RGADRAGGGGRGD-OH) ?
A) 56.2

###

System: human retinal capillary endothelial cells (HRCECs)
Assay: MTT proliferation inhibition on HRCECs
Format: cell-based
Details: 48 h, dose 0.2 μM, mean±SD
Peptide text beside a SMILES is read from it. * marks the point of attachment. X68 = O=C1C=CC(=O)N1c1ccccc1CCCCCCCCCCCC(=O)*; X66 = O=C1C=CC(=O)N1c1cccc(CCCCCCCC(=O)*)c1; X79 = O=C1C=CC(=O)N1c1cccc(CCC(=O)*)c1
Below, each entry is listed with its recorded A570 nm-A630 nm.
Just the number, please, no unit attached.

1. C[C@H](NC(=O)CNC(=O)[C@H](CCCNC(=N)N)NC(=O)CCCCCCCc1cccc(N2C(=O)C=CC2=O)c1)C(=O)N[C@@H](CC(=O)O)C(=O)N[C@@H](CCCNC(=N)N)C(=O)N[C@@H](C)C(=O)NCC(=O)NCC(=O)NCC(=O)NCC(=O)N[C@@H](CCCNC(=N)N)C(=O)NCC(=O)N[C@@H](CC(=O)O)C(=O)O [X31] (X66-RGADRAGGGGRGD-OH); 0.4824

Q) Which A570 nm-A630 nm value is on record for C[C@H](NC(=O)CNC(=O)[C@H](CCCNC(=N)N)NC(=O)CCc1cccc(N2C(=O)C=CC2=O)c1)C(=O)N[C@@H](CC(=O)O)C(=O)N[C@@H](CCCNC(=N)N)C(=O)N[C@@H](C)C(=O)NCC(=O)NCC(=O)NCC(=O)NCC(=O)N[C@@H](CCCNC(=N)N)C(=O)NCC(=O)N[C@@H](CC(=O)O)C(=O)O [X26] (X79-RGADRAGGGGRGD-OH) ?
A) 0.4162

Q) Now try C[C@H](NC(=O)CNC(=O)[C@H](CCCNC(=N)N)NC(=O)CCCCCCCCCCCc1ccccc1N1C(=O)C=CC1=O)C(=O)N[C@@H](CC(=O)O)C(=O)N[C@@H](CCCNC(=N)N)C(=O)N[C@@H](C)C(=O)NCC(=O)NCC(=O)NCC(=O)NCC(=O)N[C@@H](CCCNC(=N)N)C(=O)NCC(=O)N[C@@H](CC(=O)O)C(=O)O [X23] (X68-RGADRAGGGGRGD-OH) .
A) 0.6753
